Target: mAChR hM4 (Homo sapiens, UniProt P08173)
Sequence (P08173 1-479): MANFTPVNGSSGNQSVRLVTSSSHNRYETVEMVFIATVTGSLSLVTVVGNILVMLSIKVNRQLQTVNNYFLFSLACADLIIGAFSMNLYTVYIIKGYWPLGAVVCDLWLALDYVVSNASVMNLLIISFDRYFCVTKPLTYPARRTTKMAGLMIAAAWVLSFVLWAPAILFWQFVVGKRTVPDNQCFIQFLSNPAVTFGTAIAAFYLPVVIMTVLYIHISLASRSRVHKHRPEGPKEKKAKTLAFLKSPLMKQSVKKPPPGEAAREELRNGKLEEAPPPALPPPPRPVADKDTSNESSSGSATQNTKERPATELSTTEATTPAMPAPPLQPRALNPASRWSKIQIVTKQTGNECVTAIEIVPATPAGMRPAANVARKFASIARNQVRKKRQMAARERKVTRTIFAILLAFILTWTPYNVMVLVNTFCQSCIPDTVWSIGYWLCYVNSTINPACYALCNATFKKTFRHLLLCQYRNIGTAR
Test: mAChR M4 cell-based functional assay (calcium flux, potentiation of EC20 acetylcholine response)
Conditions: mAChR hM4 cell-line; >10,000 estimated for low potency compounds lacking a plateau
Procedure: In one aspect, the disclosed compounds potentiate the agonist response (e.g., acetylcholine) of mAChR M4. […] For example, activation of mAChR M4 activity can be determined by measurement of calcium flux in response to agonist, e.g. acetylcholine, in cells loaded with a Ca^2+-sensitive fluorescent dye (e.g., Fluo-4). In a further aspect, the calcium flux was measured as an increase in fluorescent static ratio. […]
pEC50: −log10 of the molar value.
pEC50 values by entry

In the examples that follow, each entry is paired with its recorded pEC50.
INSERT INTO assay_data (molecule, assayed_system, result) VALUES
  ('Cc1cc(C)c2cc(C(=O)NCc3ccc(S(C)(=O)=O)cc3)sc2n1 [Compound 35]', 'mAChR hM4 (Homo sapiens, UniProt P08173)', '< 5.00'),
  ('Cc1nc2sc(C(=O)NC3CCCOC3)c(-c3cnn(C)c3)c2c(C)c1Cl (stereo not drawn) [Compound 88]', 'mAChR hM4 (Homo sapiens, UniProt P08173)', '< 5.00'),
  ('Cc1nc2sc(C(=O)NC3COC3)c(Cl)c2c(C)c1Cl [Compound 126]', 'mAChR hM4 (Homo sapiens, UniProt P08173)', 6.28),
  ('Cc1nc2sc(C(=O)NCC3CCC3)c(-c3cnn(C)c3)c2c(C)c1Cl [Compound 105]', 'mAChR hM4 (Homo sapiens, UniProt P08173)', '< 5.00');

Prompt: Find the measured pEC50: item Cc1nc2sc(C(=O)NCc3ccc(S(C)(=O)=O)cc3)c(Br)c2c(C)c1Cl [Compound 45] , target or system mAChR hM4 (Homo sapiens, UniProt P08173).
Completion: < 5.00

Prompt: Identify the measured pEC50 of Cc1cc(C)c2c(C)c(C(=O)NC3CCOC3)sc2n1 (stereo not drawn) [Compound 22] for mAChR hM4 (Homo sapiens, UniProt P08173).
Completion: < 5.00

Prompt: Missing value: pEC50, mAChR hM4 (Homo sapiens, UniProt P08173), entry CSc1ccc(CNC(=O)c2sc3nc(C)cc(C)c3c2C)cc1 [Compound 27] . Fill in?
Completion: 5.66

Prompt: Return pEC50 measured with mAChR hM4 (Homo sapiens, UniProt P08173) given this molecule: Cc1cc(C)c2c(C)c(C(=O)NC3CC3)sc2n1 [Compound 18]
Completion: < 5.00

Prompt: Request body: readout pEC50, system mAChR hM4 (Homo sapiens, UniProt P08173), query Cc1cc(C)c2c(Br)c(C(=O)NCc3cccnc3)sc2n1 [Compound 9] . Return the value.
Completion: 5.52
